Origin of values: patent US20230233569A1

target_desc: KRAS G13D (Homo sapiens, UniProt P01116+P62937, G13D)
Sequence (P01116 1-169 isoform P01116-2 G13D limits assumed): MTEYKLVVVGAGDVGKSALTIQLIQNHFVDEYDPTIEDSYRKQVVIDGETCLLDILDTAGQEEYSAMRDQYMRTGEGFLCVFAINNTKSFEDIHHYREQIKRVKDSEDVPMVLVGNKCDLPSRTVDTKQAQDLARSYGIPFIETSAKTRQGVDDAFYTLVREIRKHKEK
Sequence (P62937 whole entry): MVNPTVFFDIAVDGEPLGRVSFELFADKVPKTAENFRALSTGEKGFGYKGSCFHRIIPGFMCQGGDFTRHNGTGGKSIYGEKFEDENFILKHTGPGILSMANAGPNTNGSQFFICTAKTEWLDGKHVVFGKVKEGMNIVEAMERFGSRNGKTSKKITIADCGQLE
procedure_summary: Ras-Raf disruption / FRET / MOA assay (BRAF RBD)
Format: biochemical
reported_conditions: Ras-Raf disruption, with Cyclophilin A; read-out: KRAS G13D FRET data IC50
pIC50: −log10 of the molar value.
Each entry below lists one item and its recorded pIC50 value.

molecule	pIC50
CCn1c(-c2cccnc2[C@H](C)OC)c2c3cc(ccc31)-c1cc(O)cc(c1)C[C@H](NC(=O)[C@H](C(C)C)N(C)C(=O)[C@@H]1CCN(C(=O)[C@@H]3CN3)C1)C(=O)N1CCC[C@H](N1)C(=O)OCC(C)(C)C2	7.00 to 8.00
CCn1c(-c2cccnc2[C@H](C)OC)c2c3cc(ccc31)-c1cc(O)cc(c1)C[C@H](NC(=O)[C@H](C(C)C)N(C)C(=O)[C@@]1(F)CCN(C(=O)[C@H]3CN3)C1)C(=O)N1CCC[C@H](N1)C(=O)OCC(C)(C)C2	7.00 to 8.00
CCn1c(-c2cccnc2[C@H](C)OC)c2c3cc(ccc31)-c1cc(O)cc(c1)C[C@H](NC(=O)[C@H](C(C)C)N(C)C(=O)[C@H]1CCCN(C(=O)[C@@H]3CN3)C1)C(=O)N1CCC[C@H](N1)C(=O)OCC(C)(C)C2	6.00 to 7.00
CCn1c(-c2cccnc2[C@H](C)OC)c2c3cc(ccc31)-c1cc(O)cc(c1)C[C@H](NC(=O)[C@H](C(C)C)N(C)C(=O)[C@]1(F)CCN(C(=O)[C@H]3CN3)C1)C(=O)N1CCC[C@H](N1)C(=O)OCC(C)(C)C2 (atropisomer, axis not shown)	6.00 to 7.00
CCn1c(-c2cccnc2[C@H](C)OC)c2c3cc(ccc31)-c1cc(O)cc(c1)C[C@H](NC(=O)[C@H](C(C)C)N(C)C(=O)CN(C)S(=O)(=O)[C@@H]1CN1C)C(=O)N1CCC[C@H](N1)C(=O)OCC(C)(C)C2 (single isomer, unassigned)	6.00 to 7.00
CCn1c(-c2cccnc2[C@H](C)OC)c2c3cc(ccc31)-c1csc(n1)C[C@H](NC(=O)[C@H](C(C)C)N(C)C(=O)N(C)C1CN(C(=O)[C@@H]3CN3)C1)C(=O)N1CCC[C@H](N1)C(=O)OCC(C)(C)C2	6.00 to 7.00
CCn1c(-c2cccnc2[C@H](C)OC)c2c3cc(ccc31)-c1csc(n1)C[C@H](NC(=O)[C@H](C(C)C)N(C)C(=O)N(C)CC1CN(C(=O)[C@@H]3CN3)C1)C(=O)N1CCC[C@H](N1)C(=O)OCC(C)(C)C2 (atropisomer, axis not shown)	6.00 to 7.00
CCn1c(-c2cnccc2COC)c2c3cc(ccc31)-c1cccc(c1)C[C@H](NC(=O)[C@H](C(C)C)N(C)C(=O)CC1(N=C=Nc3ccc(OC)cc3)CC1)C(=O)N1CCC[C@H](N1)C(=O)OCC(C)(C)C2	< 5.00

====

target_desc: KRAS G12S (Homo sapiens, UniProt P01116+P62937, G12S)
Sequence (P01116 1-169 isoform P01116-2 G12S limits assumed): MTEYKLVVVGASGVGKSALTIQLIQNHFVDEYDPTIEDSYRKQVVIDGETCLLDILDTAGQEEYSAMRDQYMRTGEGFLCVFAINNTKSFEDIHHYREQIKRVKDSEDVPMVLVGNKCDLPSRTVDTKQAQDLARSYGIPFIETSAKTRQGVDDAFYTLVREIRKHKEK
Sequence (P62937 whole entry): as the sequence (P62937 whole entry) above
procedure_summary: Disruption of BRAF RBD interaction with Ras (FRET / MOA assay, with Cyclophilin A)
Format: biochemical
reported_conditions: read-out: KRAS G12S FRET data, IC50
Each entry below lists one item and its recorded IC50 value.
metric: IC50

compound	value
CCn1c(-c2cccnc2[C@H](C)OC)c2c3cc(ccc31)-c1csc(n1)C[C@H](NC(=O)[C@H](C(C)C)N(C)C(=O)N1CC[C@]3(CCN(C)C3=O)C1)C(=O)N1CCC[C@H](N1)C(=O)OCC(C)(C)C2 (single isomer, unassigned) [Example A461]	1000 to 10000 nM
CCn1c(-c2cccnc2[C@H](C)OC)c2c3cc(ccc31)-c1cccc(c1)C[C@H](NC(=O)[C@H](C(C)C)N(C)C(=O)[C@H]1CCN(C(=O)C(C)(C)N(C)C)C1)C(=O)N1CCC[C@H](N1)C(=O)OCC(C)(C)C2 [Example A112]	1000 to 10000 nM
CCn1c(-c2cnccc2COC)c2c3cc(ccc31)-c1cc(O)cc(c1)C[C@H](NC(=O)[C@H](C(C)C)N(C)C(=O)[C@H]1CCN(C(=O)C(C)C)C1)C(=O)N1CCC[C@H](N1)C(=O)OCC(C)(C)C2 [Example A29]	100 to 1000 nM
CCn1c(-c2cccnc2[C@H](C)OC)c2c3cc(ccc31)-c1csc(n1)C[C@H](NC(=O)[C@H](C(C)C)N(C)C(=O)N1CC[C@@H]1C(=O)NC)C(=O)N1CCC[C@H](N1)C(=O)OCC(C)(C)C2 [Example A281]	1000 to 10000 nM
CCn1c(-c2cccnc2[C@H](C)OC)c2c3cc(ccc31)-c1csc(n1)C[C@H](NC(=O)[C@H](C(C)C)N(C)C(=O)N(C)C1CCC1)C(=O)N1CCC[C@H](N1)C(=O)OCC(C)(C)C2 (atropisomer, axis not shown) [Example A349]	10 to 100 nM
CCn1c(-c2cccnc2[C@H](C)OC)c2c3cc(ccc31)-c1cc(O)cc(c1)C[C@H](NC(=O)[C@H](C(C)C)N(C)C(=O)[C@H]1CCCN[C@@H]1C)C(=O)N1CCC[C@H](N1)C(=O)OCC(C)(C)C2 [Example A134]	100 to 1000 nM
CCn1c(-c2cnccc2COC)c2c3cc(ccc31)-c1cc(O)cc(c1)C[C@H](NC(=O)[C@H](C(C)C)N(C)C(=O)CN1CCOCC1)C(=O)N1CCC[C@H](N1)C(=O)OCC(C)(C)C2 [Example A65]	100 to 1000 nM
CCN1CC(C(=O)N(C)[C@H](C(=O)N[C@H]2Cc3cc(O)cc(c3)-c3ccc4c(c3)c(c(-c3cccnc3[C@H](C)OC)n4CC)CC(C)(C)COC(=O)[C@@H]3CCCN(N3)C2=O)C(C)C)CC1=O (some centres unmarked) [Example A248]	10 to 100 nM
CCn1c(-c2cccnc2[C@H](C)OC)c2c3cc(ccc31)-c1cc(O)cc(c1)C[C@H](NC(=O)[C@H](C(C)C)N(C)C(=O)Cc1cc[nH]n1)C(=O)N1CCC[C@H](N1)C(=O)OCC(C)(C)C2 [Example A126]	100 to 1000 nM
CCn1c(-c2cccnc2[C@H](C)OC)c2c3cc(ccc31)-c1csc(n1)C[C@H](NC(=O)[C@H](C(C)C)N(C)C(=O)N1CC3(CC(N4CCOCC4)C3)C1)C(=O)N1CCC[C@H](N1)C(=O)OCC(C)(C)C2 (atropisomer, axis not shown) [Example A486]	100 to 1000 nM
C=CC(=O)N1CC[C@H](C(=O)N(C)[C@H](C(=O)N[C@H]2Cc3cc(O)cc(c3)-c3ccc4c(c3)c(c(-c3ccccc3[C@H](C)OC)n4CC)CC(C)(C)COC(=O)[C@@H]3CCCN(N3)C2=O)C(C)C)C1 [Example A022]	100 to 1000 nM
CCn1c(-c2cccnc2[C@H](C)OC)c2c3cc(ccc31)-c1csc(n1)C[C@H](NC(=O)[C@H](C(C)C)N(C)C(=O)N1CCO[C@@H](C)C1)C(=O)N1CCC[C@H](N1)C(=O)OCC(C)(C)C2 (atropisomer, axis not shown) [Example A309]	100 to 1000 nM
CCn1c(-c2cccnc2[C@H](C)OC)c2c3cc(ccc31)-c1cc(O)cc(c1)C[C@H](NS(=O)(=O)N1CCN(C)CC1)C(=O)N1CCC[C@H](N1)C(=O)OCC(C)(C)C2 (racemic) [Example A193]	> 10000 nM
CCn1c(-c2cccnc2[C@H](C)OC)c2c3cc(ccc31)-c1cc(O)cc(c1)C[C@H](NC(=O)[C@H](C(C)C)N(C)C(=O)C1NCCC13CC3)C(=O)N1CCC[C@H](N1)C(=O)OCC(C)(C)C2 (some centres unmarked) [Example A228]	10 to 100 nM
CCn1c(-c2cccnc2[C@H](C)OC)c2c3cc(ccc31)-c1csc(n1)C[C@H](NC(=O)[C@H](C(C)C)N(C)C(=O)[C@@H]1CCN(C)[C@@H]1c1ccccc1)C(=O)N1CCC[C@H](N1)C(=O)OCC(C)(C)C2 [Example A464]	1000 to 10000 nM
CCn1c(-c2cccnc2COC)c2c3cc(ccc31)-c1cc(O)cc(c1)C[C@H](NC(=O)[C@H](C(C)C)N(C)C(=O)[C@H]1CCN(C(=O)/C=C/CN3CCN(C)CC3)C1)C(=O)N1CCC[C@H](N1)C(=O)OCC(C)(C)C2 [Example A072]	100 to 1000 nM
CCn1c(-c2cccnc2[C@H](C)OC)c2c3cc(ccc31)-c1cc(O)cc(c1)C[C@H](NC(=O)[C@H](C(C)C)N(C)C(=O)C13CNCC1C3)C(=O)N1CCC[C@H](N1)C(=O)OCC(C)(C)C2 (some centres unmarked) [Example A155]	100 to 1000 nM
